Assignment: determine reported IC50 for the given molecules.
SYSTEM_TESTED: human PAD4 (Homo sapiens)
Construct: human PAD4 (NM_012387), A2-P663, was PCR amplified; His-SUMO (N, cleaved yes)
Sequence (Q9UM07 2-663): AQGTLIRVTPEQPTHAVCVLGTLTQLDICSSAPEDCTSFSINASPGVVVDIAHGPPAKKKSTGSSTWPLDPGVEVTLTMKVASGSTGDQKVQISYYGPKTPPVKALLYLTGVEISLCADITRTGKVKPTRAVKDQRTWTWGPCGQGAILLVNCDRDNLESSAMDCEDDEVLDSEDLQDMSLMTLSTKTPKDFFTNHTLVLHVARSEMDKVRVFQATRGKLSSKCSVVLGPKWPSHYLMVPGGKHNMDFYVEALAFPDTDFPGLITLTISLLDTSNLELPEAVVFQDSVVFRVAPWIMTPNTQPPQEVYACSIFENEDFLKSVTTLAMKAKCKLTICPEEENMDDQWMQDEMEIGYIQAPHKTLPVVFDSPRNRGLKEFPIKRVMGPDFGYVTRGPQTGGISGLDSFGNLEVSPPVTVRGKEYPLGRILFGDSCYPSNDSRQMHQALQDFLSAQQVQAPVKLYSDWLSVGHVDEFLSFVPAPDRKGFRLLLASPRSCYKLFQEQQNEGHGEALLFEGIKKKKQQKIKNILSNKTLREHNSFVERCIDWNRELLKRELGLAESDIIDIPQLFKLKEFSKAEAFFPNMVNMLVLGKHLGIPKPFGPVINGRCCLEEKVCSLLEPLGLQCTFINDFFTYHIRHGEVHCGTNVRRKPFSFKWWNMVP
PROTOCOL_NOTES: In vitro PAD4 BAEE biochemical assay
TEST_CONTEXT: BAEE substrate 3 mM, 5 nM PAD4, 2 mM calcium chloride; geometric mean of multiple experiments
One number for each entry, in nM.

Use these answered entries as a reference point.
> print(dat)
                                test.smiles  property.label  readout.unit  reading
1  C[C@@H]1[C@H](N)CCCN1C(=O)c1ccc2c(nc(-c3cc4ccc5nc4n3CC/C=C/C[C@@H]3C[C@H]3C(=O)N[C@@H]5C)n2C2CC2)c1F            IC50            nM      113
2  COc1cc(C(=O)N2CC[C@@H](OC)[C@@H](N)C2)cc2nc(-c3cc4ccc5nc4n3CCCCCc3cnc(C)nc3C(=O)N[C@@H]5C)n(C)c12            IC50            nM      190
3  C[C@H]1NC(=O)C(C)(C)CCCCCCn2c(-c3nc4cc(C(=O)N5C[C@H](N)[C@@H]6CC[C@H]5C6)cc(F)c4n3C3CC3)cc3ccc1cc32            IC50            nM       31

Lab note: next molecule to report on.
# input molecule: C[C@H]1NC(=O)[C@@H]2C[C@@]2(F)CCCCCn2c(-c3nc4cc(C(=O)N5C[C@H](N)[C@@H]6CC[C@H]5C6)cc(F)c4n3C3CC3)cc3ccc1nc32 ; wanted: its IC50
21

Data provenance: patent US11976083B2
